Tested on: A549/ATCC NSCLC
Test: NCI-60 one-dose screen, 48 h
Settings: 10 µM unless noted
About 83,000 compounds went through this panel and 20% of them were active in at least one assay; those are over-represented in the sample as a whole. The source made the active and inactive calls. The calls were made as follows: active = growth percent below 10; inactive = the rest.
Reply using exactly one outcome from label 1 for active, label 0 for inactive

Observe how each entry below is paired with its result.
| SMILES STR | CLASS LABEL |
| --- | --- |
| CCOC(=O)c1c(C)nc2c(c1N)C(=O)C(=O)N2Cc1ccc(C(F)(F)F)cc1 | label 0 |
| O=C1/C(=C/c2ccc(O)cc2)COc2ccc(-c3ccccc3)cc21 | label 0 |
| CC(=O)c1c[nH]c2ccc(-c3ccnc(Nc4ccc(NC(=O)C5CCCC5)c(CN5CCOCC5)c4)n3)cc12 | label 1 |
| Cc1ccc2nc3c(cc2c1)CSc1nnc(-c2ccc[nH]c2=S)n1N3 | label 0 |
| N/C(=N\N=C\c1cc2ccccc2s1)N/N=C/c1cc2ccccc2s1 | label 0 |
| c1cnc2nc3c(cc2c1)oc1ccccc13 | label 0 |
| O=C(O)CCCCCCCCCCCCCCC(=O)O | label 0 |
| O=C(NCCc1ccccn1)OCc1nc2nc(Cl)nc(N3CCOCC3)c2[nH]1 | label 0 |

I'd appreciate the recorded outcome for COc1ccc(/C=C/C(=O)c2ccc(OC)c(OC)c2)cc1O from this test.
label 0

I'd appreciate the recorded outcome for C=C(C)[C@@H]1CC[C@]2(CO)CC[C@]3(C)[C@H](CC[C@@H]4[C@@]5(C)CCCNC(C)(C)[C@@H]5CC[C@]43C)[C@@H]12 from this test.
label 0

----------
Tested on: MALME-3M melanoma
Assay: NCI-60 one-dose screen, 48 h
Conditions: 10 µM unless noted
Compounds without any hit were thinned out: in the full panel of roughly 83,000, 20% have a hit. Calls of active or inactive are those of the source. Rule for the calls: active = growth percent below 10; inactive = the rest.
Reply using exactly one outcome from yes (1) for active, no (0) for inactive

| COMPOUND | ASSAY SYSTEM | CLASS LABEL |
| --- | --- | --- |
| NNC(=O)/C(=C\c1ccc([N+](=O)[O-])cc1)CC(=O)c1ccc(Cl)c(Cl)c1 | MALME-3M melanoma | no (0) |
| Fc1ccccc1CSc1ncnc2nc[nH]c12 | MALME-3M melanoma | no (0) |
| NC(=O)c1ncn(C2OC(CO)C(O)C2O)n1 (stereo not given) | MALME-3M melanoma | no (0) |
| COc1ccccc1Nc1cc(O)c2c(=O)cc(-c3ccccc3)oc2c1 | MALME-3M melanoma | no (0) |
| Nc1nc(SN=Nc2ccc(S(N)(=O)=O)cc2)c2[nH]cnc2n1 | MALME-3M melanoma | no (0) |

I'd appreciate the recorded outcome for N#Cc1c(Nc2ccccc2)nn2cc(-c3nc4ccccc4s3)c(N)nc12 from this test.
no (0)

I'd appreciate the recorded outcome for COc1cc(C(=O)/C=C/c2c(C)n([O-])c3ccc(Cl)cc3[n+]2=O)cc(OC)c1OC from this test.
no (0)

I'd appreciate the recorded outcome for O=S(=O)(NCCCNc1nccc(-c2c(-c3cccc(O)c3)nc3occn23)n1)c1ccc(Br)cc1 from this test.
no (0)

I'd appreciate the recorded outcome for CC1=CC2(C)/C=C(C)/C=C\CC(O)/C=C3/C=CC(=C4C(=O)OC2(CC1C)C4=O)OC3 (stereo not given) from this test.
yes (1)

I'd appreciate the recorded outcome for Cn1c(COC(=O)NCCc2ccccn2)nc2c(N3CCOCC3)nc(Cl)nc21 from this test.
yes (1)

I'd appreciate the recorded outcome for COc1ccc(C2CC(n3nnnc3-c3ccccc3)=NN2)cc1 (stereo not given) from this test.
no (0)

I'd appreciate the recorded outcome for COc1cc(CNC(=O)CCCCC[P+](c2ccccc2)(c2ccccc2)c2ccccc2)c(OC)c2c1OCO2 from this test.
no (0)

I'd appreciate the recorded outcome for COc1ccc(Cn2nc(-c3ccccc3)c3c2CCc2cnoc2-3)cc1 from this test.
no (0)

I'd appreciate the recorded outcome for COc1cc2oc(-c3cccc(C(=O)Nc4ccc(Cl)cc4)c3)cc(=O)c2c(OC)c1OC from this test.
no (0)

I'd appreciate the recorded outcome for O=C(O)C(/C=C/c1ccco1)=N\Nc1nc(-c2ccc(Cl)cc2)cs1 from this test.
no (0)

I'd appreciate the recorded outcome for O=C(Nc1ccc2cc3ccc(NC(=O)NC4CCCCC4)cc3nc2c1)NC1CCCCC1 from this test.
no (0)

I'd appreciate the recorded outcome for COc1cc(COC(=O)CCCCC[P+](c2ccccc2)(c2ccccc2)c2ccccc2)c(OC)c2c1OCO2 from this test.
yes (1)

I'd appreciate the recorded outcome for Cc1ccc(C2CC(c3cccc(Nc4ccncc4)c3)=NN2c2ccc(Cl)cc2)cc1 (stereo not given) from this test.
yes (1)

I'd appreciate the recorded outcome for CC(=O)OCC(=O)[C@@]1(O)CC[C@H]2[C@@H]3CC(=C(Br)Br)C4=CC(=O)CC[C@]4(C)[C@H]3C(=O)C[C@@]21C from this test.
no (0)

I'd appreciate the recorded outcome for O=C1Nc2c(ccc(Cl)c2Cl)/C1=C/c1ccccn1 from this test.
no (0)
